assay_remarks: endothelial E-selectin expression blockers – imaging, HUVEC, immunofluorescence, MLSMR starter and 10KST1 sets, primary screen (AID 487);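 also: 100% = median nuclei count of all wells on the same plate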
conditions: HUVEC TNFalpha-induced E-selectin immunofluorescence imaging, at 2 µM; measured here: cell number, toxicity
Reported nuclei count values for a set of compounds
// unit must come after the numeric part

compound	attribute_measured	assay_result
c1ccc(-c2nnc(CSc3nncs3)o2)cc1	nuclei count	106%
Cc1cc(C(=O)OCCO)c(C#N)c(N)n1	nuclei count	128%
CCC(CO)Nc1ncnc2c1cnn2-c1ccc(Cl)cc1 (centres undefined)	nuclei count	111%
CC1CCN(C(=O)CSCC(=O)Nc2nc(-c3cccs3)cs2)CC1	nuclei count	114%

COc1ccc(C2/C(=C(/O)c3ccccc3)C(=O)C(=O)N2C)cc1 (centres undefined) has a reported nuclei count of 110%

COCCNS(=O)(=O)c1cc(F)ccc1OC has a reported nuclei count of 111%

###

Reported inhibition values for a set of molecules
assay_remarks: inhibitors of TNFa-induced NFkB p65 translocation, primary screen, imaging, HUVEC, MLSMR starter and 10KST1 sets (AID 438);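 also: compound added about 3h40 before a 20 min TNFalpha stimulation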;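 as to inhibition: signal is the nuclear over cytoplasmic p65 intensity ratio per well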
conditions: HUVEC TNFa-induced p65 nuclear translocation; at 2 µM, stronger effect = higher value, 0% TNFa-plus-vehicle, 100% no-TNFa wells
Kindly answer with a numeric value in %, unit omitted.

Below: 4 molecules and their reported inhibition.
molecule	inhibition / %
COC(=O)c1ccc(Cl)c(NC(C)=O)c1	1.8
COc1cccc(-c2nnc(NC(C)=O)o2)c1	0.3
COc1cccc(C(=O)Nc2ncc3c(n2)CC(C)CC3=O)c1 (centres undefined)	2.5
Nc1ncnc2nc(Sc3ccc(Cl)cc3)[nH]c12	-8.5

O=C1c2ccccc2CN1CCNS(=O)(=O)c1ccc(Cl)cc1 has a reported inhibition of -1

O=C(Nc1ccc(N2CCOCC2)cc1)c1cc2ccccc2o1 has a reported inhibition of -1.9

COc1ccc(C(=O)Nc2nc(C)c(C(=O)N(C)C)s2)cc1OC has a reported inhibition of 2.8

###

assay_remarks: endothelial E-selectin expression blockers – imaging, HUVEC, immunofluorescence, MLSMR starter and 10KST1 sets, primary screen (AID 487);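 also: 100% = median nuclei count of all wells on the same plate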
conditions: HUVEC TNFalpha-induced E-selectin immunofluorescence imaging, at 2 µM; measured here: cell number, toxicity
attribute_measured: nuclei count (%)
Kindly answer with a numeric value in %, unit omitted.

Below: 6 molecules and their reported nuclei count.
molecule	nuclei count [%]
CCOC(=O)c1cnc(SCC)[nH]c1=O	117
CC1CCCN(C(=O)CN2C(=O)c3ccccc3C2=O)C1 (centres undefined)	102
CCOC(=O)c1cnc2c(OC)cccc2c1N1CCN(c2ccc(OC)cc2)CC1	80.4
Cc1ccc2[nH]c(=O)c3cc(C(=O)NCCN4CCN(C)CC4)sc3c2c1	116
CC(Oc1ccc(Cl)cc1Cl)C(=O)Nc1ncccn1 (centres undefined)	124
O=C(CSc1ncnc2c1oc1ccccc12)NCc1ccco1	105

O=C(C1CCCN(S(=O)(=O)c2cccs2)C1)N1CCc2ccccc2C1 (centres undefined) has a reported nuclei count of 109

Cc1ccc(CCNC(=O)C2CCN(S(=O)(=O)c3c(C)nn(C)c3C)CC2)cc1 has a reported nuclei count of 116

Cc1ccc(S(=O)(=O)NCCN2CCOCC2)cc1C has a reported nuclei count of 86.3

O=C(Nc1ncnc2sc3c(c12)CCC3)c1ccco1 has a reported nuclei count of 118

CCOC(=O)c1csc(NC(=O)C2CCCCC2)n1 has a reported nuclei count of 94.6

CCCCN1C(=O)C2C(C(=O)Nc3cccc(OC)c3)C3C=CC2(O3)C1C(=O)NC1CCCCC1C (centres undefined) has a reported nuclei count of 112

Cc1nnc(C)c2c(C)n(Cc3ccc4c(c3)OCO4)c(C)c12 has a reported nuclei count of 95.8

COc1ccc(C(=O)NCCn2ccc3ccccc32)c(OC)c1 has a reported nuclei count of 95.6

###

Reported cell count values for a set of compounds
assay_remarks: inhibitors of TNFa-induced NFkB p65 translocation, primary screen, imaging, HUVEC, MLSMR starter and 10KST1 sets (AID 438);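 also: compound added about 3h40 before a 20 min TNFalpha stimulation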
conditions: HUVEC TNFa-induced p65 nuclear translocation; measured here: nuclei count (cytotoxicity indicator), at 2.08 µM

Below: 5 compounds and their reported cell count.
compound	cell count
CC(C)OCCCNC(=O)c1cc2c(s1)CS(=O)(=O)C2	215
CCOC(=O)c1[nH]c(C)c(C(=O)Nc2ccc(Cl)cc2)c1C	709
COCCNS(=O)(=O)c1cc(F)ccc1OC	782
COCCN(CCOC)c1ncnc2c1cnn2-c1ccccc1	636
COCCn1c(SCC(=O)Nc2cccc(OC)c2)nnc1-c1ccc(Cl)cc1	467

Cn1ccnc1SCC(=O)Nc1ccc2ccccc2c1 has a reported cell count of 228

###

assay_remarks: inhibitors of TNFa-induced NFkB p65 translocation, primary screen, imaging, HUVEC, MLSMR starter and 10KST1 sets (AID 438);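 also: compound added about 3h40 before a 20 min TNFalpha stimulation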
conditions: HUVEC TNFa-induced p65 nuclear translocation; measured here: nuclei count (cytotoxicity indicator), at 2.08 µM
Reported cell count values for a set of compounds
Could you keep your reply to the number by itself?

compound	assay_result
Fc1ccc(-c2ccc(-c3nn4c(-c5ccco5)nnc4s3)o2)cc1	243
CC(C)C(=O)Nc1ccc(C(=O)NCc2cccnc2)cc1	393
COc1ccc(-c2nc(C#N)c(N3CCOCC3)o2)cc1OC	257

CCOc1ccc(C2CC(c3cccc(OC)c3)Nc3nc(N)nn32)cc1 (stereo unspecified) has a reported cell count of 562

COc1ccc(NC(=O)CN(c2cc(C)cc(C)c2)S(=O)(=O)c2c(C)noc2C)cc1OC has a reported cell count of 753

Cc1ccnc(NC(=O)C2CCC(CNc3c(N4CCCC4)c(=O)c3=O)CC2)c1 (stereo unspecified) has a reported cell count of 544

CCOC(=O)/C=C1\SCC(=O)N1Cc1ccc(Br)cc1 has a reported cell count of 562

CC(C)(NC(=O)N1CCCC1)c1cccc(C(C)(C)NC(=O)N2CCCC2)c1 has a reported cell count of 366

O=C(C1CCCN(S(=O)(=O)c2cccc3nonc23)C1)N1CCC(Cc2ccccc2)CC1 (stereo unspecified) has a reported cell count of 385

O=C(O)C1CCCCC1C(=O)NCCc1ccccc1 (stereo unspecified) has a reported cell count of 350

COC(=O)CNC(=O)COC(=O)c1cc(Cl)cc(Cl)c1N has a reported cell count of 473

###

assay_remarks: inhibitors of TNFa-induced NFkB p65 translocation, primary screen, imaging, HUVEC, MLSMR starter and 10KST1 sets (AID 438);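 also: compound added about 3h40 before a 20 min TNFalpha stimulation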;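 as to inhibition: signal is the nuclear over cytoplasmic p65 intensity ratio per well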
conditions: HUVEC TNFa-induced p65 nuclear translocation; at 2 µM, stronger effect = higher value, 0% TNFa-plus-vehicle, 100% no-TNFa wells
Reported inhibition values for a set of molecules
Kindly answer with a numeric value in %, unit omitted.

Below: 8 molecules and their reported inhibition.
molecule	unit_symbol	assay_result
Cc1c(C(=O)Nc2cnccn2)oc2ccccc12	%	7.3
CCOc1cc(C(=O)NCc2ccncc2)cc(OCC)c1OCC	%	1.6
Cc1nn(C)c(C)c1CNC(=O)c1cc2n(n1)C(C(F)(F)F)CC(c1cccs1)N2 (configuration not stated)	%	1.9
C=C(C)COc1ccc(-c2n[nH]c(C)c2-c2ccccc2)c(O)c1	%	-8
CSc1c(C#N)c(N)c(C#N)c2c1COC(C)(C)C2	%	-2.6
O=C1c2ccccc2C(Nc2cccnc2)N1Cc1ccccc1Cl (configuration not stated)	%	-14.6
CCOc1ccccc1OCCCCN1CCCC1	%	10.2
COc1cccc(-c2nc(CS(=O)CC(=O)NCCCOC(C)C)c(C)o2)c1 (configuration not stated)	%	-13

COc1cccc(-c2nnc(NC(=O)c3ccccc3Br)o2)c1 has a reported inhibition of -6.9

OC(CCN1CCOCC1)(c1ccc(Cl)cc1)C1CCCCC1 (configuration not stated) has a reported inhibition of -1

COc1cccc(-c2nc(CS(=O)(=O)CC(=O)Nc3cc(C)ccc3C)c(C)o2)c1 has a reported inhibition of -4.6

Cc1ccccc1NC(=O)NCCCN1CCN(C2CCCCC2)CC1 has a reported inhibition of -1.8

###

target_or_test_system: Voltage-gated potassium channel subunit beta-2 (Rattus norvegicus)
assay_remarks: inhibitors of rat Kvbeta2 reductase activity – biochemical, NADPH fluorescence, primary screen (AID 622);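 also: slope of raw intensity against log time taken from 70 to 1610 s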
conditions: recombinant KvBeta, 4-cyanobenzaldehyde reduction, at 10 µM, stronger effect = higher value
Reported fluorescence slope values for a set of compounds
Could you keep your reply to the number by itself?

Below: 6 compounds and their reported fluorescence slope.
compound	attribute_measured	assay_result
CCOC(=O)C1CCCN(C/C(O)=C(\C#N)c2nc(-c3ccc(Cl)cc3)cs2)C1 (stereo not drawn)	fluorescence slope	-0.499
O=C(Nc1cccc(F)c1)C1C2C=CC3(CN(CCCN4CCOCC4)C(=O)C13)O2 (stereo not drawn)	fluorescence slope	-0.548
COc1cc2c(C#N)c(N3CCOCC3)nc(N)c2c(N)n1	fluorescence slope	-0.0448
O=C(Nc1ncnc2sc3c(c12)CCC3)c1ccco1	fluorescence slope	-0.327
CCOCCCNC(=O)CS(=O)(=O)Cc1nc(-c2cccc(OC)c2)oc1C	fluorescence slope	-0.596
CCCn1cnc2c(cnn2-c2ccc(F)cc2)c1=O	fluorescence slope	-0.536

Cc1ccccc1-n1nnnc1SCC(=O)Nc1ccc(S(=O)(=O)N2CCCC2)cc1 has a reported fluorescence slope of -0.534

CN(C)CCCOC(=O)CCc1ccccc1 has a reported fluorescence slope of -0.312
